# Test system: T. cruzi (Tulahuen strain)
# EXPERIMENT NOTES: microbe, parasite or virus in culture
# Assay type: cell-based, Trypanosoma cruzi
# RUN PARAMETERS: Trypanosoma cruzi, TULAHUEN, Fibroblast, 120 h, 10 uM, Table S2; read-out: T. cruzi % growth @ 10 uM (Amastigotes)
QUANTITY: activity at 10 µM

compound="CCCCC1C(=O)N(c2ccccc2)N(c2ccc(O)cc2)C1=O (stereo not drawn)" result=3.7%
compound="CC(C)CCCC(C)C1CCC2C3CC(=O)C4CC(O)CCC4(C)C3CCC12C (stereo not drawn)" result=7.8%
compound="COc1c(-c2coc3cc4c(cc3c2=O)CC(OC(C)=O)C(C)(C)O4)ccc2c1C=CC(C)(C)O2 (stereo not drawn) [MUNDULONE ACETATE]" result=4.6%
compound="CC1C=CC=CC=CC=CC=CC=CC=CC(OC2OC(C)C(O)C(N)C2O)CC2OC(O)(CC(O)CC(O)C(O)CCC(O)CC(O)CC(=O)OC(C)C(C)C1O)CC(O)C2C(=O)O (stereo not drawn)" result=20.6%
compound=Cc1[nH]c2ccccc2c1CN(C)C result=20.8%
compound="COc1ccc(-c2oc3ccccc3c(=O)c2O)cc1OC [3-HYDROXY-3',4'-DIMETHOXYFLAVONE]" result=5.2%
compound=COc1ccc2c(c1)[nH]c1c(C)nccc12 result=7.5%
compound="CC1CCC2C(C)C(=O)OC3OC4(C)CCC1C32OO4 (stereo not drawn)" result=17.5%
compound=CC(C)=CCc1c(O)cc2occ(-c3ccc4c(c3)OCO4)c(=O)c2c1O result=22.8%
compound="CC1(C)C2CC(=O)O[C@@]3(C)C4=CC(=O)O[C@@H](c5ccoc5)[C@]4(C)CCC3[C@@]2(C)C=C[C@H]1O (stereo partly drawn) [DEOX[…]]" result=13.2%
compound=CCc1nc(N)nc(N)c1-c1ccc(Cl)cc1 result=24.2%
compound="CC(Cc1cccc(C(F)(F)F)c1)NCCOC(=O)c1ccccc1 (stereo not drawn)" result=21.6%
compound="COc1ccc(C(=O)c2ccc(O)cc2)c(O)c1O [2,3,4'-TRIHYDROXY-4-METHOXYBENZOPHENONE]" result=3.6%
compound=O=c1c(-c2cc(O)c(O)c(O)c2)coc2cc(O)c(O)c(O)c12 result=5.7%
compound=CCC(=C(c1ccccc1)c1ccc(OCCN(C)C)cc1)c1ccccc1 result=22.5%
compound=CCOc1ccc(C(=O)c2ccc(OC)c(O)c2O)cc1 result=9.1%
compound="COC(=O)C[C@H]1C(C)(C)[C@@H](O)[C@@H]2CC3=C4CC(O)O[C@@H](c5ccoc5)[C@]4(C)CCC3[C@@]1(C)C2=O (stereo partly drawn) [3,16-DIDEOXYMEXICANOLIDE-3beta-DIOL]" result=22.1%
compound=CCN(CC)CCOc1ccc2c(c1)C(=O)c1cc(OCCN(CC)CC)ccc1-2 result=7.8%
compound="CCOC(=O)C1=C(COCCN)NC(C)=C(C(=O)OC)C1c1ccccc1Cl.O=S(=O)(O)c1ccccc1 (stereo not drawn)" result=13.3%
compound="CC(C1OC(C)(C)C(O)C1O)C1CCC2(C)C3=CCC4C(C)(C)C(=O)CCC4(C)C3CCC12C (stereo not drawn)" result=9.9%
compound="O=c1[nH]c(=O)n(C2CC(O)C(CO)O2)cc1F (stereo not drawn)" result=2.6%
compound="CC(=O)OC1CCC2(C)C(CC(OC(C)=O)C3(C)C2CCC2(C)C(c4ccoc4)OC(=O)C4OC423)C1(C)C (stereo not drawn) [3beta-ACETOXYDEOXODIHYDROGEDUNIN]" result=7%
compound="Clc1ccc(COC(Cn2ccnc2)c2ccc(Cl)cc2Cl)c(Cl)c1 (stereo not drawn)" result=0.4%
compound="COC(=O)CCC(C)C1CCC2C3C(O)CC4CC(O)CCC4(C)C3CC(O)C12C (stereo not drawn)" result=22.6%
compound=Clc1ccccc1C(c1ccccc1)(c1ccccc1)n1ccnc1 result=10.2%
compound="CC1(C)C(=O)C=CC2(C)C1CC(=O)C1(C)C2CCC2(C)C(c3ccoc3)OC(=O)C3OC321 (stereo not drawn)" result=4.9%
compound="CC1=CC(=O)C2C(C)(C)CCCC2(C)C1(O)CCc1ccoc1 (stereo not drawn)" result=15.1%
compound="CC(C)C(C)/C=C/C(C)C1CCC2C3=CC=C4CC(O)CCC4(C)C3CCC21C (stereo not drawn)" result=6%
compound="COC(=O)C1=C(C)NC(C)=C(C(=O)OCCN(C)Cc2ccccc2)C1c1cccc([N+](=O)[O-])c1 (stereo not drawn)" result=2%
compound=CCCC(C(=O)OCCN(CC)CC)(c1ccccc1)c1ccccc1 result=2.1%
compound=CN(C)CC/C=C1/c2ccccc2Sc2ccc(Cl)cc21 result=1.8%
compound=COc1c(C)c2c(c(O)c1CC=C(C)CCC(=O)O)C(=O)OC2 result=12.2%
compound="Clc1ccc(C(OCCN2CCCCC2)c2ccccc2)cc1 (stereo not drawn)" result=1.2%
